system-name: human PAH with the R408W mutation (A375 R408W cells) (Homo sapiens, UniProt P00439, R408W)
Construct: expressed in transfected cells
method-summary: Cell Based Phenylalanine Flux Assay
condition: A375 R408W cells; 24 hrs with compound, then 20 μM sepiapterin and 800 μM 13C9,15N-Phenylalanine for 4 hours; 13C-Tyrosine by LC-MS; average where tested multiple times
For each entry below, report its AC50 value.

Worked examples, 3 compounds total:
In: Hello, I am looking for reported AC50 with human PAH with the R408W mutation (A375 R408W cells) (Homo sapiens, UniProt P00439, R408W) for O=C(c1nnc(-c2ccccn2)o1)N1CCc2[nH]cnc2[C@H]1c1nc2c(F)c(F)ccc2o1 [Example 629] . Could you help?
Out: 500 to 1000 nM

In: Try the compound CC(C)(O)c1nc(C(F)F)c(C(=O)N2CCc3[nH]cnc3[C@H]2c2nc3cccc(Cl)c3o2)o1 [Example 423]
Out: ≤ 500 nM

In: Try the compound Cn1ccc(-c2nc(C(F)F)c(C(=O)N3CCc4[nH]cnc4[C@@H]3c3nc4cc(F)ccc4o3)o2)n1 [Example 412]
Out: 500 to 1000 nM

List AC50 for every entry below, keeping the order given.
1. O=C(c1ccnn1CC(F)F)N1CCc2[nH]cnc2[C@@H]1c1nc2ccccc2o1 [Example 836]
2. O=C(c1ocnc1C(F)F)N1CCc2[nH]cnc2[C@H]1c1nc2c(OC(F)(F)F)cccc2o1 [Example 536]
3. CC(C)(O)c1nc(C(F)F)c(C(=O)N2CCc3[nH]cnc3[C@@H]2c2nc3cccc(Cl)c3o2)o1 [Example 424]
4. CC(O)c1nc(Cl)c(C(=O)N2CCc3[nH]cnc3[C@H]2c2nc3cc(F)ccc3o2)o1 (single isomer, unassigned) [Example 236]
5. CC(C)(O)C1CCN(c2ccc3c(C(=O)N4CCc5[nH]cnc5[C@@H]4c4nc5c(F)cccc5o4)cnn3c2)CC1 [Example 508]
6. O=C(c1ocnc1C(F)F)N1CCc2[nH]cnc2[C@H]1c1nc2cc(Br)ccc2o1 [Example 149]
7. Cc1cccc2nc([C@H]3c4nc[nH]c4CCN3C(=O)c3nc(C(F)(F)F)nn3C)oc12 [Example 686]

Out:
["500 to 1000 nM", "≤ 500 nM", "≤ 500 nM", "500 to 1000 nM", "≥ 5000 nM", "≤ 500 nM", "1000 to 5000 nM"]

List AC50 for every entry below, keeping the order given.
1. O=C(c1nnc(-c2ccccn2)o1)N1CCc2[nH]cnc2[C@H]1c1nc2ccc(F)cc2o1 [Example 303]
2. COCc1ccc2c(C(=O)N3CCc4[nH]cnc4[C@@H]3c3nc4c(F)cccc4o3)cnn2c1 [Example 276]
3. Cn1cncc1-c1nc(C(F)F)c(C(=O)N2CCc3[nH]cnc3[C@@H]2c2nc3cccc(F)c3o2)o1 [Example 691]
4. COc1cccc2oc([C@H]3c4nc[nH]c4CCN3C(=O)c3nc(C)nn3C)nc12 [Example 828]
5. Cc1cccc2nc([C@H]3c4nc[nH]c4CCN3C(=O)c3nnc(-c4ccn(C(F)F)n4)o3)oc12 [Example 859]

Out:
≤ 500 nM
≥ 5000 nM
500 to 1000 nM
≥ 5000 nM
1000 to 5000 nM

---

system-name: human PAH with the R408W mutation (A375 R408W cells) (Homo sapiens, UniProt P00439, R408W)
Construct: expressed in transfected cells
method-summary: Cell Based Phenylalanine Flux Assay
condition: A375 cells expressing R408W PAH; 24 hrs with compound, then 20 μM sepiapterin and 800 μM 13C9,15N-Phenylalanine for 4 hours; 13C-Tyrosine by LC-MS; average where tested multiple times
attribute-measured: AC50

In: Recorded AC50 of O=C(C1CC1(F)F)N1CCc2[nH]cnc2C1c1nc2cc(F)ccc2o1 (centres unmarked) , please.
Out: ≥ 5 µM

List AC50 for every entry below, keeping the order given.
1. COCCc1ccc2c(C(=O)N3CCc4[nH]cnc4C3c3nc4cc(F)ccc4o3)cnn2c1 (centres unmarked)
2. O=C(c1nnc(-c2cnn(S(=O)(=O)C3CC3)c2)o1)N1CCc2[nH]cnc2C1c1nc2cc(F)ccc2o1 (centres unmarked)

Out:
1 to 5 µM
≥ 5 µM

List AC50 for every entry below, keeping the order given.
1. Cn1nc(C(C)(C)C)cc1C(=O)N1CCc2[nH]cnc2C1c1nc2cccc(F)c2o1 (centres unmarked)
2. O=C(CCc1nccs1)N1CCc2[nH]cnc2C1c1nc2ccc(Br)cc2o1 (centres unmarked)
3. CC(C)(O)c1nc(Br)c(C(=O)N2CCc3[nH]cnc3C2c2nc3cc(F)ccc3o2)s1 (centres unmarked)
4. CC(C)(O)Cn1cc(C(=O)N2CCc3[nH]cnc3C2c2nc3cc(F)ccc3o2)cn1 (centres unmarked)
5. Cc1ncoc1C(=O)N1CC2(CC2)c2[nH]cnc2C1c1nc2cc(F)ccc2o1 (centres unmarked)
6. Cn1ncnc1C(=O)N1CCc2[nH]cnc2C1c1nc2cccc(F)c2o1 (centres unmarked)

Out:
1 to 5 µM
1 to 5 µM
≥ 5 µM
≥ 5 µM
1 to 5 µM
1 to 5 µM

List AC50 for every entry below, keeping the order given.
1. CN(C)Cc1ncc(C(=O)N2CCc3[nH]cnc3C2c2nc3cc(F)ccc3o2)o1 (centres unmarked)
2. O=C(c1nnc(CCN2CC(F)C2)o1)N1CCc2[nH]cnc2C1c1nc2cc(F)ccc2o1 (centres unmarked)

Out:
1. ≥ 5 µM
2. ≥ 5 µM

---

system-name: human PAH with the R408W mutation (A375 R408W cells) (Homo sapiens, UniProt P00439, R408W)
Construct: expressed in transfected cells
method-summary: Cell Based Phenylalanine Flux Assay
condition: A375 R408W cells; 24 hrs with compound, then 20 μM sepiapterin and 800 μM 13C9,15N-Phenylalanine for 4 hours; 13C-Tyrosine by LC-MS; average where tested multiple times
For each entry below, report its AC50 value.

Worked examples, 6 compounds total:
In: Recorded AC50 of Cc1ccc2c(C(=O)N3CCc4[nH]cnc4[C@H]3c3nc4c(F)cccc4o3)cnn2c1 , please.
Out: ≤ 500 nM

In: Try the compound O=C(c1oc(-c2ccc(C(F)(F)F)cn2)nc1C(F)F)N1CCc2[nH]cnc2[C@@H]1c1nc2cccc(F)c2o1
Out: ≤ 500 nM

In: Try the compound Cc1ccc2oc([C@@H]3c4nc[nH]c4CCN3C(=O)c3nnc(-c4ccc(F)cn4)o3)nc2c1
Out: 500 to 1000 nM

In: Try the compound COc1cccc2nc([C@@H]3c4nc[nH]c4CCN3C(=O)c3nc(C(F)(F)F)nn3C)oc12
Out: 500 to 1000 nM

In: Try the compound CC(C)(C#N)c1nc(C(F)F)c(C(=O)N2CCc3[nH]cnc3[C@@H]2c2nc3cc(F)ccc3o2)o1
Out: 500 to 1000 nM

In: Try the compound COc1cccc2nc([C@H]3c4nc[nH]c4CCN3C(=O)c3cc(C)nn3C)oc12
Out: 1000 to 5000 nM

List AC50 for every entry below, keeping the order given.
1. CC(C)(O)c1nc(C(F)F)c(C(=O)N2CCc3[nH]cnc3[C@@H]2c2nc3c(F)ccc(F)c3o2)o1
2. O=C(c1oc(-c2cccnc2)nc1C(F)F)N1CCc2[nH]cnc2[C@@H]1c1nc2cccc(F)c2o1

Out:
1000 to 5000 nM
≤ 500 nM

List AC50 for every entry below, keeping the order given.
1. CC(C)(C)c1ncc(C(=O)N2CCc3[nH]cnc3[C@@H]2c2nc3cc(F)ccc3o2)o1
2. CC(C)(O)c1nc(C(F)F)c(C(=O)N2CCc3[nH]cnc3[C@@H]2c2nc3cc(Br)cc(F)c3o2)o1
3. Cn1cnc(-c2nc(C(F)(F)F)c(C(=O)N3CCc4[nH]cnc4[C@@H]3c3nc4cc(F)ccc4o3)o2)c1

Out:
1000 to 5000 nM
≤ 500 nM
1000 to 5000 nM

List AC50 for every entry below, keeping the order given.
1. O=C(c1oc(-c2ccncc2)nc1C(F)F)N1CCc2[nH]cnc2[C@@H]1c1nc2cccc(F)c2o1
2. O=C(c1oc(-c2ccc(C(F)(F)F)cn2)nc1C(F)F)N1CCc2[nH]cnc2[C@H]1c1nc2cccc(F)c2o1

Out:
≤ 500 nM
≤ 500 nM

List AC50 for every entry below, keeping the order given.
1. CC(C)(O)c1nc(C2CC2)c(C(=O)N2CCc3[nH]cnc3[C@@H]2c2nc3cc(F)ccc3o2)o1
2. O=C(c1nnc(-c2ncccc2F)o1)N1CCc2[nH]cnc2[C@H]1c1nc2ccccc2o1

Out:
1: 1000 to 5000 nM; 2: ≤ 500 nM

---

system-name: human PAH with the R408W mutation (A375 R408W cells) (Homo sapiens, UniProt P00439, R408W)
Construct: expressed in transfected cells
Sequence (P00439 1-452 R408W): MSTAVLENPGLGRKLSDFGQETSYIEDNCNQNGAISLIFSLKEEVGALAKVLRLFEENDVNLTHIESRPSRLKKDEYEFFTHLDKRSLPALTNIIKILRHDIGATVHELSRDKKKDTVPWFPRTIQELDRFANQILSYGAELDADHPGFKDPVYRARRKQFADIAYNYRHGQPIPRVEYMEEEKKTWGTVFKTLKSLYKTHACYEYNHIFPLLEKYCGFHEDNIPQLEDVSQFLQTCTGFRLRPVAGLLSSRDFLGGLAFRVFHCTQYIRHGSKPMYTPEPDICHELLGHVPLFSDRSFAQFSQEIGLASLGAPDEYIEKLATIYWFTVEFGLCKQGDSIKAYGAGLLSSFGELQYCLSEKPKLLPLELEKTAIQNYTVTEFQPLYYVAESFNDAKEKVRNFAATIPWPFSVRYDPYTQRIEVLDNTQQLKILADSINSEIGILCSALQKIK
method-summary: Cell Based Phenylalanine Flux Assay
condition: A375 R408W cells; 24 hrs with compound, then 20 μM sepiapterin and 800 μM 13C9,15N-Phenylalanine for 4 hours; 13C-Tyrosine by LC-MS; average where tested multiple times
For each entry below, report its AC50 value.

In: Recorded AC50 of CN1CCN(c2nc(C(F)F)c(C(=O)N3CCc4[nH]cnc4[C@H]3c3nc4cc(F)ccc4o3)o2)CC1 , please.
Out: 0.5 to 1 µM

In: Try the compound Nc1cn2ncc(C(=O)N3CCc4[nH]cnc4[C@@H]3c3nc4cc(F)ccc4o3)c2cc1Cl
Out: ≥ 5 µM

In: Try the compound Cc1nc(C(=O)N2CCc3[nH]cnc3[C@@H]2c2nc3c(C)cccc3o2)n(C)n1
Out: ≥ 5 µM

In: Try the compound COc1cccc2nc([C@@H]3c4nc[nH]c4CCN3C(=O)c3ocnc3C(F)F)oc12
Out: ≤ 0.5 µM

In: Try the compound Cc1c(F)ccc2oc([C@@H]3c4nc[nH]c4CCN3C(=O)c3oc(C(C)(C)O)nc3C(F)F)nc12
Out: ≤ 0.5 µM

In: Try the compound CC(F)(F)c1ncoc1C(=O)N1CCc2[nH]cnc2[C@H]1c1nc2ccc(F)cc2o1
Out: ≤ 0.5 µM

In: Try the compound Cc1ccc2oc([C@H]3c4nc[nH]c4CCN3C(=O)c3ocnc3C(F)F)nc2c1
Out: ≤ 0.5 µM

In: Try the compound Cc1nc(C(C)(C)C#N)oc1C(=O)N1CCc2[nH]cnc2[C@H]1c1nc2cc(F)ccc2o1
Out: 0.5 to 1 µM

In: Try the compound CC(C)(O)c1nc(Br)c(C(=O)N2CCc3[nH]cnc3[C@H]2c2nc3cccc(F)c3o2)o1
Out: ≤ 0.5 µM

In: Try the compound O=C(c1ccnn1C(F)F)N1CCc2[nH]cnc2[C@H]1c1nc2cc(F)ccc2o1
Out: 0.5 to 1 µM

List AC50 for every entry below, keeping the order given.
1. Cn1cc(-c2ccc3c(C(=O)N4CCc5[nH]cnc5[C@H]4c4nc5cccc(F)c5o4)cnn3c2)cn1
2. O=C(c1oc(C2(O)CC2)nc1C(F)F)N1CCc2[nH]cnc2[C@H]1c1nc2cccc(F)c2o1
3. O=C(c1ocnc1C(F)F)N1CCc2[nH]cnc2[C@H]1c1nc2cccc(C(F)(F)F)c2o1
4. CN1CCN(c2nc(C(F)F)c(C(=O)N3CCc4[nH]cnc4[C@@H]3c3nc4cc(F)ccc4o3)o2)CC1
5. Cc1ccc2oc([C@@H]3c4nc[nH]c4CCN3C(=O)c3oc(-c4cnn(C)c4)nc3C(F)F)nc2c1

Out:
1: ≤ 0.5 µM; 2: ≤ 0.5 µM; 3: ≤ 0.5 µM; 4: 1 to 5 µM; 5: ≤ 0.5 µM

In: Recorded AC50 of Cc1cccc2nc([C@H]3c4nc[nH]c4CCN3C(=O)c3cc(C(F)F)nn3C)oc12 , please.
Out: 1 to 5 µM
